tested on: PHKG2; settings: concentration: 1 μM, replicates: in singlicate; n = 1;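 further: KINOMEscan kinase panel screen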
MEASUREMENT_NAME: %Inh (%)
Report only the number, with the unit % understood.

Field: example entries. Status: answers known.
COMPOUND	ASSAY_SYSTEM	%Inh (%)
O=c1cc(N2CCOCC2)nc2n(Cc3ccccc3F)ccn12	PHKG2	0
FC(F)(F)c1ccccc1-c1cc(-c2c[nH]nc2-c2ccccn2)ccn1	PHKG2	4
O=C(Nc1n[nH]c2nc(-c3ccco3)c(Br)cc12)C1CCN(Cc2ccccc2)C1.O=C(O)[C@H](O)[C@@H](O)C(=O)O (centres unmarked)	PHKG2	4
Nc1cccc(-c2ccc3c(N)n[nH]c3c2)n1	PHKG2	6
COc1ccc(CSc2nnc(-c3ccc4ncsc4c3)o2)cc1C(F)(F)F	PHKG2	15
COc1ccc(Nc2nccc(N3CCC(NC(=O)C(C)c4ccc(Cl)cc4)C3)n2)cc1 (centres unmarked)	PHKG2	0

Recorded result, `CS(=O)(=O)Cc1ccc(Nc2nccc(-c3c(-c4cccc(NC(=O)C5CCCCC5)c4)nn4ncccc34)n2)cc1` , %Inh: 9

Recorded result, `CC(C)c1cc(-c2ccc3c(N)n[nH]c3c2)nc(N)n1` , %Inh: 5
